Target: PBP3 from Escherichia coli (K-12) (Escherichia coli, UniProt P0AD68)
Construct: made in house
Sequence (P0AD68 1-577): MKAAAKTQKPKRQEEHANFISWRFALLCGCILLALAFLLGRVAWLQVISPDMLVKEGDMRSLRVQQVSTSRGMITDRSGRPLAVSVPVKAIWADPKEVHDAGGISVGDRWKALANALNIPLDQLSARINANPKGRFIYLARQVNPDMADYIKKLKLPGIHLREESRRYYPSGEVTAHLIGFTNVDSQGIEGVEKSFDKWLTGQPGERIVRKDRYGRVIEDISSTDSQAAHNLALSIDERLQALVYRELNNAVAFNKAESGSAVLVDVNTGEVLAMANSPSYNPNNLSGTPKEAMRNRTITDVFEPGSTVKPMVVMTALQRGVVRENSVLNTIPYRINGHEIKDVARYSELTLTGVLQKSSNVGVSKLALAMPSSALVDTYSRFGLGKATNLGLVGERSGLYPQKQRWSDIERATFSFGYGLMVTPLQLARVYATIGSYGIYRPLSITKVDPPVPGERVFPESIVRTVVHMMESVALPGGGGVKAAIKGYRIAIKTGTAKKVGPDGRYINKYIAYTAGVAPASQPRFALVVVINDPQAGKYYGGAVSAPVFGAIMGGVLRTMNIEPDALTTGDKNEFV
Experiment: Bocillin-FL fluorescence polarization competition binding, E. coli PBP3
pEC50: −log10 of the molar value.
metricName: pEC50

Recorded pEC50 for O=C(NCCN1CCN(C(=O)N[C@@H](C(=O)N[C@H]2Cc3ccc(F)c(C(=O)O)c3OB2O)c2cc(F)c(O)c(O)c2Cl)C(=O)C1=O)Nc1cccnc1 [Example 222] with PBP3 from Escherichia coli (K-12) (Escherichia coli, UniProt P0AD68), please? > 5.00

Missing value: pEC50, PBP3 from Escherichia coli (K-12) (Escherichia coli, UniProt P0AD68), entry O=C(NCCS(=O)(=O)N1CCN(C(=O)N[C@H](C(=O)N[C@H]2Cc3ccc(F)c(C(=O)O)c3OB2O)c2cc(F)c(O)c(O)c2Cl)C1=O)c1ccc(O)cc1 [Example 286] . Fill in? < 3.60

Query the reported pEC50 for PBP3 from Escherichia coli (K-12) (Escherichia coli, UniProt P0AD68); item: CN(CCN1CCN(C(=O)N[C@@H](C(=O)N[C@H]2Cc3ccc(F)c(C(=O)O)c3OB2O)c2cc(F)c(O)c(O)c2Cl)C(=O)C1=O)Cc1cccc(C(N)=O)c1 [Example 225] 4.30 to 5.00

Query the reported pEC50 for PBP3 from Escherichia coli (K-12) (Escherichia coli, UniProt P0AD68); item: O=C(NCCCN1CCN(C(=O)NC(C(=O)N[C@H]2Cc3ccc(F)c(C(=O)O)c3OB2O)c2cc(F)c(O)c(O)c2Cl)C(=O)C1=O)c1cc(F)c(F)c(O)c1F (some centres unmarked) [Example 404] > 5.00

Could you share what pEC50 was measured for O=C(NCCN1CCN(C(=O)NC(C(=O)N[C@H]2Cc3ccc(F)c(C(=O)O)c3OB2O)c2cc(F)c(O)c(O)c2Cl)C(=O)C1=O)c1cccnc1 (some centres unmarked) [Example 217] , tested on PBP3 from Escherichia coli (K-12) (Escherichia coli, UniProt P0AD68)? > 5.00

---

Test system: P. aeruginosa CDC-0054
Test: microbe, parasite or virus in culture
Assay type: cell-based
Details: Pseudomonas aeruginosa, CDC0054, read-out: Minimum inhibitory concentration, P. aeruginosa CDC-0054
metricName: MIC

What measured MIC goes with O=C(O)c1c(F)ccc2c1OB(O)[C@@H](NC(=O)C(NC(=O)N1CCN(S(=O)(=O)c3ccc(O)c(O)c3Cl)C1=O)c1ccc(P(=O)(O)O)cc1)C2 (some centres unmarked) ? < 1 µg/mL

Looking for the measured MIC of O=C(O)c1c(F)ccc2c1OB(O)[C@@H](NC(=O)[C@H](NC(=O)N1CCN(C3CCN(C(=O)c4cc(O)ccc4Cl)CC3)C1=O)c1cc(F)c(O)c(O)c1Cl)C2 (single isomer, unassigned) , can you help? < 1 µg/mL

Which measured MIC value corresponds to O=C(NCCCN1CCN(C(=O)NC(C(=O)N[C@H]2Cc3ccc(F)c(C(=O)O)c3OB2O)c2cc(F)c(O)c(O)c2Cl)C(=O)C1=O)c1cc(O)cc(F)c1 (some centres unmarked) ? < 1 µg/mL

Name the reported MIC value associated with the compound O=C(O)c1c(F)ccc2c1OB(O)[C@@H](NC(=O)[C@H](NC(=O)N1CCN(C3CCN(C(=O)c4cc(O)cc(O)c4)CC3)C1=O)c1cc(F)c(O)c(O)c1F)C2 < 1 µg/mL

Report MIC for O=C(O)c1c(F)ccc2c1OB(O)[C@@H](NC(=O)[C@H](NC(=O)N1CCN(C3CCN(C(=O)c4cc(O)c(F)c(O)c4)CC3)C1=O)c1cc(F)c(O)c(O)c1Cl)C2 (single isomer, unassigned) please. < 1 µg/mL

MIC lookup needed for O=C(O)c1c(F)ccc2c1OB(O)[C@@H](NC(=O)C(NC(=O)N1CCN(CCNC(=O)[C@@H]3CCCN3)C1=O)c1cc(F)c(O)c(O)c1Cl)C2 (some centres unmarked) , thanks. 2 to 4 µg/mL

State the recorded MIC for this entry: O=C(NCCCN1CCN(C(=O)N[C@@H](C(=O)N[C@H]2Cc3ccc(F)c(C(=O)O)c3OB2O)c2cc(F)c(O)c(O)c2Cl)C1=O)c1cccc(O)c1 < 1 µg/mL

Record request: MIC value, item O=C(NCCCN1CCN(C(=O)NC(C(=O)N[C@H]2Cc3ccc(F)c(C(=O)O)c3OB2O)c2cc(F)c(O)c(O)c2Cl)C(=O)C1=O)c1c(F)cc(O)cc1Cl (some centres unmarked) < 1 µg/mL

Reported MIC, compound O=C(NCCS(=O)(=O)N1CCN(C(=O)N[C@H](C(=O)N[C@H]2Cc3ccc(F)c(C(=O)O)c3OB2O)c2cc(F)c(O)c(O)c2Cl)C1=O)c1ccc(O)cc1 : ____ > 128 µg/mL

Data request, read-out MIC, for Nc1cc(CN2CCC(N3CCN(C(=O)N[C@@H](C(=O)N[C@H]4Cc5ccc(F)c(C(=O)O)c5OB4O)c4cc(F)c(O)c(O)c4Cl)C3=O)CC2)ccn1 < 1 µg/mL

Fill in: MIC of O=C(NCCCS(=O)(=O)N1CCN(C(=O)NC(C(=O)N[C@H]2Cc3ccc(F)c(C(=O)O)c3OB2O)c2cc(F)c(O)c(O)c2Cl)C1=O)c1ccncc1 (some centres unmarked) is ___ 8 to 16 µg/mL

---

Target: PBP3 from Pseudomonas aeruginosa (PAO1) (Pseudomonas aeruginosa)
Experiment: Bocillin-FL fluorescence polarization competition binding, P. aeruginosa PBP3
Settings: Binding affinity to P. aeruginosa PBP3; fluorescence polarization competition binding assay using Bocillin-FL; read-out: P. aeruginosa PBP3 Potency
Consider the following compounds; for each one, report its IC50.

Using the record for O=C(O)c1c(F)ccc2c1OB(O)[C@@H](NC(=O)C(NC(=O)N1CCN(C3CCN(C(=O)c4cc[nH]c(=O)c4)CC3)C1=O)c1cc(F)c(O)c(O)c1Cl)C2 (stereo partly drawn) , report its IC50. < 10 µM

If you can, please state the reported IC50 value of O=C(CN1CCN(C(=O)NC(C(=O)N[C@H]2Cc3ccc(F)c(C(=O)O)c3OB2O)c2cc(F)c(O)c(O)c2Cl)C(=O)C1=O)NCc1ccccc1 (stereo partly drawn) . < 10 µM

# get_value(readout='IC50', item= CS(=O)(=O)N1CCN(C(=O)N[C@H](C(=O)N[C@H]2Cc3cccc(C(=O)O)c3OB2O)c2ccc(P(=O)(O)O)cc2)C1=O (single isomer, unassigned) ) 10 to 50 µM

---

Target: PBP3 from Pseudomonas aeruginosa (PAO1) (Pseudomonas aeruginosa, UniProt G3XD46)
Construct: made in house
Sequence (G3XD46 whole entry): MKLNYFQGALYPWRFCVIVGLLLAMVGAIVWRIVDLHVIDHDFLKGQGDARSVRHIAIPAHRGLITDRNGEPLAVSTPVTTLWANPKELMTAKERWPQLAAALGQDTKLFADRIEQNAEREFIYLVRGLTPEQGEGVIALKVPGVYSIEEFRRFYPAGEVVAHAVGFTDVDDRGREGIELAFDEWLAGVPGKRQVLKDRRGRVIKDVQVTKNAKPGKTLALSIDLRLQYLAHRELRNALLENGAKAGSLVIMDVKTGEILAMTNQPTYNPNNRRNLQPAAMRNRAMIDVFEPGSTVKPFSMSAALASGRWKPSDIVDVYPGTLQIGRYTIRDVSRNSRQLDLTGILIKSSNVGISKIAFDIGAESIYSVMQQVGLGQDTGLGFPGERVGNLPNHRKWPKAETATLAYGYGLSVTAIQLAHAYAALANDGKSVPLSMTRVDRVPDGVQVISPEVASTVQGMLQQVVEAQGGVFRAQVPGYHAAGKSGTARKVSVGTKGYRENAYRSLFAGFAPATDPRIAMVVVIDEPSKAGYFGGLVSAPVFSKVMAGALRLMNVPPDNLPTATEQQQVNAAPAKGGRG
Experiment: Bocillin-FL fluorescence polarization competition binding, P. aeruginosa PBP3
Conditions: Binding affinity to P. aeruginosa PBP3; fluorescence polarization competition binding assay using Bocillin-FL; read-out: P. aeruginosa PBP3 Potency
Source text: To determine the ability of boronic acid-based test PBP inhibitors to bind Penicillin Binding Proteins (PBPs), Bocillin-FL (fluorescently-labeled penicillin V; ThermoFisher Scientific) was used in a fluorescence polarization (FP) competition binding assay to assess inhibitor binding to PBP3 from Escherichia coli (K-12), PBP3 from Pseudomonas aeruginosa (PAO1), PBP1a and PBP3 from Acinetobacter baumannii (ATCC 19606), and PBP2 from Neisseria gonorrhoeae (FA19). […]
pIC50: −log10 of the molar value.
Hi there, I'd appreciate the recorded pIC50 for every entry that follows.

Name the reported pIC50 value associated with the compound CN1CCC[C@@H]1C(=O)N[C@@H](C(=O)N[C@H]1Cc2cccc(C(=O)O)c2OB1O)c1ccc(P(=O)(O)O)cc1 (racemic) [Example 54] 3.60 to 4.30

// query pIC50 value for entry CS(=O)(=O)N1CCN(C(=O)N[C@@H](C(=O)N[C@H]2Cc3ccc(F)c(C(=O)O)c3OB2O)c2ccc(P(=O)(O)O)c(F)c2F)C1=O [Example 16] > 5.00

Which pIC50 is listed for O=C(NCCCN1CCN(C(=O)N[C@H](C(=O)N[C@H]2Cc3ccc(F)c(C(=O)O)c3OB2O)c2cc(F)c(O)c(O)c2Cl)C1=O)Nc1ccc(O)cc1 [Example 283] ? 3.60 to 4.30

Field request: pIC50 | item: O=C(NCCCN1CCN(C(=O)NC(C(=O)N[C@H]2Cc3ccc(F)c(C(=O)O)c3OB2O)c2cc(F)c(O)c(O)c2Cl)C(=O)C1=O)c1ccnc(F)c1 (some centres unmarked) [Example 466] > 5.00

Look at this compound and give its reported pIC50. O=C(NCCS(=O)(=O)N1CCN(C(=O)N[C@H](C(=O)N[C@H]2Cc3ccc(F)c(C(=O)O)c3OB2O)c2cc(F)c(O)c(O)c2Cl)C1=O)c1nccs1 [Example 263] 4.30 to 5.00

Report pIC50 for O=C(NCCN1CCN(C(=O)NC(C(=O)N[C@H]2Cc3ccc(F)c(C(=O)O)c3OB2O)c2cc(F)c(O)c(O)c2Cl)C1=O)c1ccccc1 (some centres unmarked) [Example 242] please. > 5.00

# get_value(readout='pIC50', item= CN1CCC[C@H]1C(=O)NC(C(=O)N[C@H]1Cc2cccc(C(=O)O)c2OB1O)c1ccc(P(=O)(O)O)cc1 (some centres unmarked) [Example 66] ) 4.30 to 5.00

# query: pIC50 of entry CS(=O)(=O)NC(C(=O)N[C@H]1Cc2cccc(C(=O)O)c2OB1O)c1ccc(P(=O)(O)O)cc1 (some centres unmarked) [Example 59] < 3.60

If you can, please state the reported pIC50 value of O=C(O)c1cccc2c1OB(O)[C@@H](NC(=O)C(NC(=O)C1CC1)c1ccc(P(=O)(O)O)cc1)C2 (some centres unmarked) [Example 30] . 3.60 to 4.30

Request the reported pIC50 associated with O=C(NCCCN1CCN(C(=O)N[C@@H](C(=O)N[C@H]2Cc3ccc(F)c(C(=O)O)c3OB2O)c2cc(F)c(O)c(O)c2Cl)C(=O)C1=O)c1cc(F)c(O)c(F)c1 [Example 422] > 5.00

What does the record list as pIC50 for O=C(NCCCN1CCN(C(=O)N[C@H](C(=O)N[C@H]2Cc3ccc(F)c(C(=O)O)c3OB2O)c2cc(F)c(O)c(O)c2Cl)C1=O)c1cccc(O)c1 [Example 254] ? 3.60 to 4.30

# lookup: pIC50 of O=C(CN1CCN(C(=O)NC(C(=O)N[C@H]2Cc3ccc(F)c(C(=O)O)c3OB2O)c2cc(F)c(O)c(O)c2Cl)C(=O)C1=O)Nc1ccccc1 (some centres unmarked) [Example 232] > 5.00

Recorded pIC50 for O=C(NCCN1CCN(C(=O)NC(C(=O)N[C@H]2Cc3ccc(F)c(C(=O)O)c3OB2O)c2cc(F)c(O)c(O)c2Cl)C1=O)c1cccnc1 (some centres unmarked) [Example 246] , please? > 5.00

Quick one: pIC50 for O=C(NCCN1CCN(C(=O)NC(C(=O)N[C@H]2Cc3ccc(F)c(C(=O)O)c3OB2O)c2cc(F)c(O)c(O)c2Cl)C(=O)C1=O)Nc1ccc(O)cc1 (some centres unmarked) [Example 219] ? > 5.00

Item under review: O=C(O)c1c(F)ccc2c1OB(O)[C@@H](NC(=O)C(NC(=O)N1CCN(C3CCN(C(=O)Nc4ccc(Cl)c(O)c4F)CC3)C(=O)C1=O)c1cc(F)c(O)c(O)c1Cl)C2 (some centres unmarked) [Example 489] . Reported pIC50? > 5.00

Find the recorded pIC50 belonging to CCN1CCN(C(=O)NC(C(=O)N[C@H]2Cc3cccc(C(=O)O)c3OB2O)c2ccc(P(=O)(O)O)cc2F)C(=O)C1=O (some centres unmarked) [Example 1] and report it. > 5.00

Reported pIC50, compound O=C(NCCCN1CCN(C(=O)N[C@@H](C(=O)N[C@H]2Cc3ccc(F)c(C(=O)O)c3OB2O)c2cc(F)c(O)c(O)c2Cl)C(=O)C1=O)c1c(F)cc(O)cc1F (racemic) [Example 420] : ____ > 5.00

Quick one: pIC50 for O=C(CN1CCN(C(=O)NC(C(=O)N[C@H]2Cc3ccc(F)c(C(=O)O)c3OB2O)c2cc(F)c(O)c(O)c2Cl)C(=O)C1=O)NCc1ccc(O)cc1 (some centres unmarked) [Example 236] ? > 5.00

Please give the measured pIC50 for this compound: O=C(NCCCN1CCN(C(=O)N[C@H](C(=O)N[C@H]2Cc3ccc(F)c(C(=O)O)c3OB2O)c2cc(F)c(O)c(O)c2Cl)C1=O)c1ccccc1 [Example 252] < 3.60

Reported pIC50, compound NC(C(=O)N[C@H]1Cc2ccc(F)c(C(=O)O)c2OB1O)c1ccc(P(=O)(O)O)cc1 (some centres unmarked) [Example 14] : ____ < 3.60

Suppose we examine the compound O=C(NCCCN1CCN(C(=O)NC(C(=O)N[C@H]2Cc3ccc(F)c(C(=O)O)c3OB2O)c2cc(F)c(O)c(O)c2Cl)C(=O)C1=O)Nc1ccc(O)cc1 (some centres unmarked) [Example 227] ; what pIC50 value has been reported? > 5.00

I am curious: what pIC50 value has been reported for O=C(NCCCN1CCN(C(=O)NC(C(=O)N[C@H]2Cc3ccc(F)c(C(=O)O)c3OB2O)c2cc(F)c(O)c(O)c2Cl)C(=O)C1=O)c1cccc(O)c1F (some centres unmarked) [Example 406] ? > 5.00

# lookup: pIC50 of O=C(O)c1c(F)ccc2c1OB(O)[C@@H](NC(=O)C(NC(=O)N1CCN(C3CCN(C(=O)c4c(F)ccc(O)c4F)CC3)C(=O)C1=O)c1cc(F)c(O)c(O)c1Cl)C2 (some centres unmarked) [Example 308] > 5.00
